test system: Erythrocyte; assay: Hemolytic activity in mouse erythrocytes assessed as 10% hemolysis incubated for 1 hr by absorbance based analysis; type: toxicity, cell-based
Where a SMILES comes first, the peptide text is derived from it. Side-chain parts run from the residue outwards.
Quick reference: MHC10 of the listed items.
experimentalReadout: MHC10

• N=C(N)NCCC[C@H](NC(=O)[C@H](CCCNC(=N)N)NC(=O)[C@H](CCCNC(=N)N)NC(=O)[C@H](CCCCNC(=O)[C@@H](N)Cc1c[nH]c2ccccc12)NC(=O)[C@@H](N)Cc1c[nH]c2ccccc12)C(N)=O (H-WK(Trp)RRR-NH2) = > 256 µM
• N=C(N)NCCC[C@H](NC(=O)[C@@H](N)CCCNC(=N)N)C(=O)NCCCC[C@H](NC(=O)[C@H](CCCNC(=N)N)NC(=O)[C@@H](N)CCCNC(=N)N)C(=O)N[C@@H](Cc1c[nH]c2ccccc12)C(=O)N[C@@H](Cc1c[nH]c2ccccc12)C(=O)N[C@@H](Cc1c[nH]c2ccccc12)C(=O)N[C@@H](Cc1c[nH]c2ccccc12)C(N)=O (H-RRK([Arg-Arg])WWWW-NH2) = > 256 µM
• N=C(N)NCCC[C@H](NC(=O)[C@H](CCCNC(=N)N)NC(=O)[C@H](CCCNC(=N)N)NC(=O)[C@@H](N)CCCNC(=N)N)C(=O)N[C@@H](CCCCN)C(=O)N[C@@H](Cc1c[nH]c2ccccc12)C(=O)N[C@@H](Cc1c[nH]c2ccccc12)C(=O)N[C@@H](Cc1c[nH]c2ccccc12)C(=O)N[C@@H](Cc1c[nH]c2ccccc12)C(N)=O = > 256 µM
• N=C(N)NCCC[C@H](N)C(=O)NCCCC[C@H](NC(=O)[C@@H](N)CCCNC(=N)N)C(=O)N[C@@H](Cc1c[nH]c2ccccc12)C(=O)N[C@@H](Cc1c[nH]c2ccccc12)C(N)=O (H-RK(Arg)WW-NH2) = > 256 µM
• N=C(N)NCCC[C@H](NC(=O)[C@H](CCCNC(=N)N)NC(=O)[C@@H](N)CCCNC(=N)N)C(=O)NCCCC[C@H](NC(=O)[C@H](CCCNC(=N)N)NC(=O)[C@H](CCCNC(=N)N)NC(=O)[C@@H](N)CCCNC(=N)N)C(=O)N[C@@H](Cc1c[nH]c2ccccc12)C(=O)N[C@@H](Cc1c[nH]c2ccccc12)C(=O)N[C@@H](Cc1c[nH]c2ccccc12)C(=O)N[C@@H](Cc1c[nH]c2ccccc12)C(=O)N[C@@H](Cc1c[nH]c2ccccc12)C(=O)N[C@@H](Cc1c[nH]c2ccccc12)C(N)=O (H-RRRK([Arg-Arg-Arg])WWWWWW-NH2) = 22.12 µM
• N=C(N)NCCC[C@H](NC(=O)[C@H](CCCNC(=N)N)NC(=O)[C@@H](N)CCCNC(=N)N)C(=O)NCCCC[C@H](NC(=O)[C@H](CCCNC(=N)N)NC(=O)[C@H](CCCNC(=N)N)NC(=O)[C@@H](N)CCCNC(=N)N)C(=O)N[C@@H](Cc1c[nH]c2ccccc12)C(=O)N[C@@H](Cc1c[nH]c2ccccc12)C(=O)N[C@@H](Cc1c[nH]c2ccccc12)C(=O)N[C@@H](Cc1c[nH]c2ccccc12)C(=O)N[C@@H](Cc1c[nH]c2ccccc12)C(N)=O = 91.08 µM
• N=C(N)NCCC[C@H](NC(=O)[C@H](CCCCNC(=O)[C@@H](N)Cc1c[nH]c2ccccc12)NC(=O)[C@@H](N)Cc1c[nH]c2ccccc12)C(N)=O (H-Trp-Lys(Trp)-Arg-NH2) = > 256 µM
• N=C(N)NCCC[C@H](NC(=O)[C@H](CCCNC(=N)N)NC(=O)[C@H](CCCNC(=N)N)NC(=O)[C@H](CCCNC(=N)N)NC(=O)[C@H](CCCCNC(=O)[C@H](Cc1c[nH]c2ccccc12)NC(=O)[C@@H](N)Cc1c[nH]c2ccccc12)NC(=O)[C@H](Cc1c[nH]c2ccccc12)NC(=O)[C@@H](N)Cc1c[nH]c2ccccc12)C(N)=O (H-WWK([Trp-Trp])RRRR-NH2) = > 256 µM
• N=C(N)NCCC[C@H](NC(=O)[C@H](CCCCN)NC(=O)[C@H](Cc1c[nH]c2ccccc12)NC(=O)[C@@H](N)Cc1c[nH]c2ccccc12)C(N)=O (H-WWKR-NH2) = > 256 µM
• N=C(N)NCCC[C@H](NC(=O)[C@H](CCCNC(=N)N)NC(=O)[C@H](CCCCNC(=O)[C@@H](N)Cc1c[nH]c2ccccc12)NC(=O)[C@@H](N)Cc1c[nH]c2ccccc12)C(N)=O (H-WK(Trp)RR-NH2) = > 256 µM
• N=C(N)NCCC[C@H](NC(=O)[C@@H](N)CCCNC(=N)N)C(=O)NCCCC[C@H](NC(=O)[C@H](CCCNC(=N)N)NC(=O)[C@@H](N)CCCNC(=N)N)C(=O)N[C@@H](Cc1c[nH]c2ccccc12)C(=O)N[C@@H](Cc1c[nH]c2ccccc12)C(=O)N[C@@H](Cc1c[nH]c2ccccc12)C(=O)N[C@@H](Cc1c[nH]c2ccccc12)C(=O)N[C@@H](Cc1c[nH]c2ccccc12)C(N)=O (H-RRK([Arg-Arg])WWWWW-NH2) = 51.32 µM
• N=C(N)NCCC[C@H](NC(=O)[C@@H](N)CCCNC(=N)N)C(=O)N[C@@H](CCCCN)C(=O)N[C@@H](Cc1c[nH]c2ccccc12)C(N)=O (H-RRKW-NH2) = > 256 µM
• N=C(N)NCCC[C@H](NC(=O)[C@H](CCCNC(=N)N)NC(=O)[C@H](CCCNC(=N)N)NC(=O)[C@H](CCCNC(=N)N)NC(=O)[C@H](CCCNC(=N)N)NC(=O)[C@H](CCCNC(=N)N)NC(=O)[C@H](CCCNC(=N)N)NC(=O)[C@H](CCCCNC(=O)[C@H](Cc1c[nH]c2ccccc12)NC(=O)[C@H](Cc1c[nH]c2ccccc12)NC(=O)[C@@H](N)Cc1c[nH]c2ccccc12)NC(=O)[C@H](Cc1c[nH]c2ccccc12)NC(=O)[C@H](Cc1c[nH]c2ccccc12)NC(=O)[C@@H](N)Cc1c[nH]c2ccccc12)C(N)=O = 17.53 µM

###

assay: Cytotoxicity against HEK293T cells assessed as cell death measured after 1 hr by resazurin dye based analysis; type: toxicity, HEK-293T; conditions: human, HEK293T cells
Quick reference: CC50 at 1 h of the listed items.
experimentalReadout: CC50 at 1 h

* H-RRRRKWWWWW-NH2 | 63.6 µM
* H-WWWWWWKRRRRR-NH2 | 44.9 µM
* H-RRRRRRKWWWWW-NH2 | 55.1 µM
* H-WWWWKRRR-NH2 | > 128 µM
* H-RRRRRRKWWWWWWW-NH2 | 101 µM
* H-RRRRKWWW-NH2 | > 128 µM
* H-WWKRRR-NH2 | > 128 µM
* H-WWWWWWKRRRRRR-NH2 | 45 µM
* H-WWWWWWKRRRRRRR-NH2 | 46.6 µM
* H-RRRRRRKWWWWWW-NH2 | 51.5 µM
* H-WWWWKRRRRR-NH2 | 116 µM
* H-WWWWKRRRR-NH2 | > 128 µM
* H-RRKWWW-NH2 | > 128 µM

###

test system: Erythrocyte; test: Hemolytic activity in mouse erythrocytes assessed as 10% hemolysis incubated for 1 hr by absorbance based analysis; assay type: toxicity, cell-based
experimentalReadout: MHC10 (µM)

• H-RRRRRRKWWWWWW-NH2 = 24.89
• H-WWWWWWKRRRRRRR-NH2 = 27.86
• H-WWWWWWKRRRRRR-NH2 = 34.63
• H-WWWWWWKRRRRR-NH2 = 29.45
• H-RRRRRRKWWWWW-NH2 = 42.8
• H-RRRRKWWWWW-NH2 = 45.69
• H-RRRRRRKWWWWWWW-NH2 = 19.48

###

test: Cytotoxicity against HEK293T cells assessed as cell death measured after 1 hr by resazurin dye based analysis; type: toxicity, HEK-293T; conditions: human, HEK293T cells
Where a SMILES comes first, the peptide text is derived from it. Side-chain parts run from the residue outwards.
Quick reference: CC50 at 1 h of the listed items.
experimentalReadout: CC50 at 1 h

• N=C(N)NCCC[C@H](NC(=O)[C@H](CCCCN)NC(=O)[C@H](Cc1c[nH]c2ccccc12)NC(=O)[C@@H](N)Cc1c[nH]c2ccccc12)C(N)=O (H-WWKR-NH2) = > 128 µM
• N=C(N)NCCC[C@H](NC(=O)[C@H](CCCNC(=N)N)NC(=O)[C@H](CCCNC(=N)N)NC(=O)[C@H](CCCNC(=N)N)NC(=O)[C@H](CCCNC(=N)N)NC(=O)[C@H](CCCCNC(=O)[C@H](Cc1c[nH]c2ccccc12)NC(=O)[C@@H](N)Cc1c[nH]c2ccccc12)NC(=O)[C@H](Cc1c[nH]c2ccccc12)NC(=O)[C@@H](N)Cc1c[nH]c2ccccc12)C(N)=O (H-WWK([Trp-Trp])RRRRR-NH2) = > 128 µM
• N=C(N)NCCC[C@H](NC(=O)[C@H](CCCNC(=N)N)NC(=O)[C@H](CCCNC(=N)N)NC(=O)[C@H](CCCCNC(=O)[C@@H](N)Cc1c[nH]c2ccccc12)NC(=O)[C@@H](N)Cc1c[nH]c2ccccc12)C(N)=O (H-WK(Trp)RRR-NH2) = > 128 µM
• N=C(N)NCCC[C@H](NC(=O)[C@H](CCCNC(=N)N)NC(=O)[C@H](CCCNC(=N)N)NC(=O)[C@H](CCCNC(=N)N)NC(=O)[C@H](CCCNC(=N)N)NC(=O)[C@H](CCCCNC(=O)[C@H](Cc1c[nH]c2ccccc12)NC(=O)[C@H](Cc1c[nH]c2ccccc12)NC(=O)[C@@H](N)Cc1c[nH]c2ccccc12)NC(=O)[C@H](Cc1c[nH]c2ccccc12)NC(=O)[C@H](Cc1c[nH]c2ccccc12)NC(=O)[C@@H](N)Cc1c[nH]c2ccccc12)C(N)=O (H-WWWK([Trp-Trp-Trp])RRRRR-NH2) = 48.2 µM
• N=C(N)NCCC[C@H](NC(=O)[C@H](CCCNC(=N)N)NC(=O)[C@H](CCCNC(=N)N)NC(=O)[C@H](CCCNC(=N)N)NC(=O)[C@H](CCCNC(=N)N)NC(=O)[C@H](CCCNC(=N)N)NC(=O)[C@H](CCCCNC(=O)[C@H](Cc1c[nH]c2ccccc12)NC(=O)[C@H](Cc1c[nH]c2ccccc12)NC(=O)[C@@H](N)Cc1c[nH]c2ccccc12)NC(=O)[C@H](Cc1c[nH]c2ccccc12)NC(=O)[C@H](Cc1c[nH]c2ccccc12)NC(=O)[C@@H](N)Cc1c[nH]c2ccccc12)C(N)=O (H-WWWK([Trp-Trp-Trp])RRRRRR-NH2) = 41.7 µM
• N=C(N)NCCC[C@H](NC(=O)[C@H](CCCNC(=N)N)NC(=O)[C@H](CCCNC(=N)N)NC(=O)[C@H](CCCCNC(=O)[C@H](Cc1c[nH]c2ccccc12)NC(=O)[C@@H](N)Cc1c[nH]c2ccccc12)NC(=O)[C@H](Cc1c[nH]c2ccccc12)NC(=O)[C@@H](N)Cc1c[nH]c2ccccc12)C(N)=O (H-WWK([Trp-Trp])RRR-NH2) = > 128 µM
